- target.desc: UniProt Q9UM07
- Sequence (Q9UM07 whole entry, looked up): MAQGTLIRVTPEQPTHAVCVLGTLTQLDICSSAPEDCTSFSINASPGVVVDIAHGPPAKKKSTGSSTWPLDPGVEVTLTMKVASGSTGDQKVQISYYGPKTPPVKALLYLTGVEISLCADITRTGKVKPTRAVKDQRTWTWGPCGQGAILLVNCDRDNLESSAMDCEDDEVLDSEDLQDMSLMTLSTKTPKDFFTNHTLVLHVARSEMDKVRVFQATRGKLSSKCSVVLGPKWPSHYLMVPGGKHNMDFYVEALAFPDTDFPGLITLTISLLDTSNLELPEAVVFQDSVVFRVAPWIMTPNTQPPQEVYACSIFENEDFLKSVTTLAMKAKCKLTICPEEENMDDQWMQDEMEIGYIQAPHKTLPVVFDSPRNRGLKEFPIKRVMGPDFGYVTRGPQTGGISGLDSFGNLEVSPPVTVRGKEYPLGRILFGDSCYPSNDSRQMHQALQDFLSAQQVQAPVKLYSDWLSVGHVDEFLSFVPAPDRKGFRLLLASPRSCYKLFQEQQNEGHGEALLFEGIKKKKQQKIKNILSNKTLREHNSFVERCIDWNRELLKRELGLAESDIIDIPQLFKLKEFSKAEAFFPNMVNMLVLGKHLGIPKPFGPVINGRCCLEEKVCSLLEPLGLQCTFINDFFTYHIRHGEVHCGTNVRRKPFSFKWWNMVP
- procedure.text: PubChem AID 588472
- assay.context: recombinant PAD1-4, colorimetric citrullination assay; PAD4
assay.metric: IC50

>>> assay_result("NC1=CC(=O)c2cccnc2C1=O")
"1000 nM"

* * *

- target.desc: Protein-arginine deiminase type-1 (Homo sapiens) (UniProt Q9ULC6)
- Sequence (Q9ULC6 whole entry, looked up): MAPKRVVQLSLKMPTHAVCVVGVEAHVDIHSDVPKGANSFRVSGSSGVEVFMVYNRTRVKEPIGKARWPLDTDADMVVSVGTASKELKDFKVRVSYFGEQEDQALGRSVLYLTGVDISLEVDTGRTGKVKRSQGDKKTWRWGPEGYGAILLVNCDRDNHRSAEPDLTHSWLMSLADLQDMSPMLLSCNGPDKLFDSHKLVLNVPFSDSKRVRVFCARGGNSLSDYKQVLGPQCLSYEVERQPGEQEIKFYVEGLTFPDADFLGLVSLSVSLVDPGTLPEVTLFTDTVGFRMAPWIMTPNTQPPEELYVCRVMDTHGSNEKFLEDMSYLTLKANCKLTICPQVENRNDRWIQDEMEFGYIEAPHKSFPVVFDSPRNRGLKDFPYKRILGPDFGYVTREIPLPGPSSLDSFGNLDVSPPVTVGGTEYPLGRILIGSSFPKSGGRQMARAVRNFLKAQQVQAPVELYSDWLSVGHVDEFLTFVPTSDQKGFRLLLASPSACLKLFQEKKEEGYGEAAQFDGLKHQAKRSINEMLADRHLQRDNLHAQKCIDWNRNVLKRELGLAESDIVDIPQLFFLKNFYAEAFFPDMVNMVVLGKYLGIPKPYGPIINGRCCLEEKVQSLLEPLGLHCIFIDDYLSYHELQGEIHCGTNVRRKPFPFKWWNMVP
- procedure.text: PubChem AID 588472
- assay.context: recombinant PAD1-4, colorimetric citrullination assay; PAD1
assay.metric: IC50

>>> assay_result("NC1=CC(=O)c2cccnc2C1=O")
"970 nM"
